Each recorded value in this set is attributed to paper PMC11140114.

- target-desc: recombinant human dynamin-related protein 1 (Drp1), isoform 1 (Homo sapiens, isoform 1, UniProt O00429)
- Sequence (O00429 whole entry, canonical isoform): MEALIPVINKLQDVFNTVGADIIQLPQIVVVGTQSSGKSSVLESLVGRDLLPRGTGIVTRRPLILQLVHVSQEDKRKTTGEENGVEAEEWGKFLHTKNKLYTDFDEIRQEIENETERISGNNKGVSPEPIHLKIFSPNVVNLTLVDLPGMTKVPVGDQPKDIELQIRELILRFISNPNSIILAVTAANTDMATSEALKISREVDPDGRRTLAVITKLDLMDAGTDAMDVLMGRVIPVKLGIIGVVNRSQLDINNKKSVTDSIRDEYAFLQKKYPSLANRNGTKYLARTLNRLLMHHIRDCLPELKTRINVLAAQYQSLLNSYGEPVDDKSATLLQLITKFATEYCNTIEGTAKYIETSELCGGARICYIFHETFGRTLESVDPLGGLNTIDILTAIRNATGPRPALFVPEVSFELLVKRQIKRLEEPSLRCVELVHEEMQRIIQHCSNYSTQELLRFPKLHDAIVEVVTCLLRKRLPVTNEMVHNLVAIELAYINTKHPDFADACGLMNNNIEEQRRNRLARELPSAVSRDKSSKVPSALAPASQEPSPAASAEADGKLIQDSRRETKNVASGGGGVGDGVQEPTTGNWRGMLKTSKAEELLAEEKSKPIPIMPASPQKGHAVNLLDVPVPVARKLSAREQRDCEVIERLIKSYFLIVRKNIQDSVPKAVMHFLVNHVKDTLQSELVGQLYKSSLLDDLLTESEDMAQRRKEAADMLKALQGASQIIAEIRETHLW
measure: binding result

{"binder": "D193 (VHH) VHH: EVQLVDSGGGLVQSGGSLTLACAASVSIDEFPAMTWYRQATGKQRELVGVITKGGATKLADSAKGRFTISRDNAKNMVYLQMTSLKPDDTAVYYCSVPNKVMGWGPDDWWGQGSQVTVSS", "experimental-result": "binds"}
{"binder": "D187 (VHH) VHH: HVQLVESGGGLVQAGESLKLSCVASGIPFSSRAMGWYRQTPGKDRELVARISVRGVTFYADSVTGRFAISRDNDRSTLYLQMNSLKSEDTAIYFCAAGDNTQTVLTRPAHWGQGTQVTVSS", "experimental-result": "binds"}
